Test: binders of r(CAG) RNA repeats, primary screen, biochemical, fluorescence (AID 651821);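 note: 0% = DMSO alone and 100% = 100 µM mitoxantrone as full dye displacement; higher means more dye released from RNA so lower well fluorescence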
Conditions: r(CAG) RNA repeat, TO-PRO-1 dye displacement fluorescence; at 3 µM; stronger effect = higher value
About 4,700 (1.3%) of roughly 370,000 compounds were called active. The sample as a whole holds a higher share of actives than the screen did.

>  <compound>
O=C(NCc1ccccc1)[C@H]1CCCN1C(=O)[C@H]1CCCN1C(=O)c1cc(F)cc(F)c1

>  <inhibition [%]>
-2.08

$$$$
>  <compound>
CC(C)C[C@H](NC(=O)CC1CCCC1)C(=O)N1CCC[C@H]1C(=O)NCc1ccccc1

>  <inhibition [%]>
-2.39

$$$$
>  <compound>
O=C(N/N=C/c1sc(N2CCCCC2)nc1-c1cccs1)c1cccnc1

>  <inhibition [%]>
5.88

$$$$
>  <compound>
CC(=O)c1ccc(NC(=O)c2cc(-c3cccs3)on2)cc1

>  <inhibition [%]>
-1.84

$$$$
>  <compound>
O=[N+]([O-])c1cc(Br)c(O)c(/C=N/Nc2nc3ccccc3s2)c1

>  <inhibition [%]>
64.1

$$$$
>  <compound>
O=C(O)c1ccc(N/N=C/c2cn(-c3ccccc3)nc2-c2cccs2)cc1

>  <inhibition [%]>
70.5

$$$$
>  <compound>
Cc1ccc(-n2c(SCC(=O)Nc3ccc4c(c3)OCO4)nnc2-c2ccccn2)cc1

>  <inhibition [%]>
-1.61

$$$$
>  <compound>
CCOC(=O)C1Nc2ccc(C(F)(F)F)cc2C2C=CCC12 (stereo not given)

>  <inhibition [%]>
60.5

$$$$
>  <compound>
CC(=O)O[C@H]1CC[C@@]2(C)[C@@H](CC[C@@H]3[C@@H]2CC[C@]2(C)[C@@H](C(C)(C)O)C[C@@H]32)C1

>  <inhibition [%]>
5.36

$$$$
>  <compound>
COc1cc(/C=C/C(=O)O)cc(S(=O)(=O)Nc2ccccc2SC)c1OC

>  <inhibition [%]>
8.56

$$$$
>  <compound>
COc1ccc(-n2c(SCC(=O)Nc3ccc4cn[nH]c4c3)nnc2-c2cccnc2)cc1

>  <inhibition [%]>
5.12

$$$$
>  <compound>
CN(C)[C@H]1CCN(c2cccc3c2S(=O)(=O)N2CC[C@H](C2)O3)C1

>  <inhibition [%]>
1.39

$$$$
>  <compound>
N#Cc1c(-c2ccccc2)nc(SCc2ccc([N+](=O)[O-])cc2)[nH]c1=O

>  <inhibition [%]>
74

$$$$
>  <compound>
Cc1ccc(NC(=O)CCNC(=O)c2ccc([N+](=O)[O-])cc2)cc1S(=O)(=O)N1CCOCC1

>  <inhibition [%]>
1.24

$$$$
>  <compound>
COC(=O)CCCC1=CC2=C(c3ccccc3)C(=O)C(C)(OC(=O)C3CCCC3)C(=O)C2=CN1c1ccc(OC)cc1 (stereo not given)

>  <inhibition [%]>
6.99

$$$$
>  <compound>
COc1ccc(NC(=O)c2cn(-c3ccccc3)nc2SC)cc1

>  <inhibition [%]>
5.53

$$$$
>  <compound>
O=C(CSc1nc2ccccc2s1)NN=Cc1ccc(O)cc1O

>  <inhibition [%]>
11

$$$$
>  <compound>
O=C(O)c1ccc(NC(=O)c2ccc(COc3ccc(Cl)cc3)o2)cc1

>  <inhibition [%]>
22.1

$$$$
>  <compound>
Cc1ccc(CSc2nc3[nH]ncc3c(=O)[nH]2)cc1

>  <inhibition [%]>
-3.55

$$$$
>  <compound>
COc1ccc(CCNS(=O)(=O)c2ccc(Cl)s2)cc1OC

>  <inhibition [%]>
-4.15

$$$$
>  <compound>
CCOC(=O)c1ccc(N/C(=N/S(=O)(=O)c2ccccc2)c2ccccc2)cc1

>  <inhibition [%]>
0.82

$$$$
>  <compound>
O=C(Nc1nc(-c2ccco2)c(-c2ccco2)s1)c1ccco1

>  <inhibition [%]>
70.5

$$$$
>  <compound>
Cc1ccccc1C(=O)N1CCC(C(=O)Oc2ccc(C#N)cc2)CC1

>  <inhibition [%]>
-7.52

$$$$
>  <compound>
CC(=O)c1ccc(NC(=O)C2CC(=O)Nc3nc4ccccc4n32)cc1 (stereo not given)

>  <inhibition [%]>
2.8

$$$$
>  <compound>
O=C(Nn1c(SCc2ccc([N+](=O)[O-])cc2)nc2ccccc2c1=O)c1ccc(F)cc1

>  <inhibition [%]>
25.7

$$$$
>  <compound>
CCOC(=O)[C@]12CCCC3=C1N(CCC3)C(=O)[C@@H](CC(=O)NCc1cccs1)C2

>  <inhibition [%]>
-1.37

$$$$
>  <compound>
Cc1ccccc1CSc1nnc(-c2ccccc2)c(=O)[nH]1

>  <inhibition [%]>
6.58

$$$$
>  <compound>
O=C(Nc1nonc1-c1ccc(Cl)cc1)c1ccco1

>  <inhibition [%]>
-0.35

$$$$
>  <compound>
CCOC(=O)[C@H]1Nc2ccc(Cl)cc2[C@@H]2[C@H]1C1CC(c3ccccc31)N2C(=O)OCc1ccccc1 (stereo not given in full)

>  <inhibition [%]>
8.62

$$$$
>  <compound>
COc1ccccc1C1C(C#N)=C(N)Oc2c1c(-c1ccccc1)nn2-c1ccccc1 (stereo not given)

>  <inhibition [%]>
54.6

$$$$
>  <compound>
O=C(/C=C/c1cn(-c2ccccc2)nc1-c1ccc2c(c1)OCCO2)NCCCN1CCOCC1

>  <inhibition [%]>
-0.21

$$$$
>  <compound>
CCOc1ncccc1C(=O)Nc1ccc(S(=O)(=O)Nc2nc(C)cc(C)n2)cc1

>  <inhibition [%]>
16.8

$$$$
>  <compound>
COc1ccccc1CSc1ncc(-c2ccc([N+](=O)[O-])cc2)[nH]1

>  <inhibition [%]>
6.09

$$$$
>  <compound>
COC(=O)c1ccc(NC(=O)c2ccccc2NS(=O)(=O)c2ccccc2)cc1

>  <inhibition [%]>
74.1

$$$$
>  <compound>
COc1cc(OC)c(S(=O)(=O)Nc2ccccc2C(=O)O)cc1S(=O)(=O)Nc1ccccc1C(=O)O

>  <inhibition [%]>
63.4

$$$$
>  <compound>
Cc1ccc(CSc2nsc(C)c2C#N)cc1

>  <inhibition [%]>
-2.07

$$$$
>  <compound>
COc1ccc(NS(=O)(=O)c2cc(NC(=O)CC(=O)c3ccc([N+](=O)[O-])cc3)ccc2C)cc1

>  <inhibition [%]>
42.4

$$$$
>  <compound>
CC1(Cc2cccc(C#N)c2)C(=O)Nc2ccc(-c3cccc(C(F)(F)F)c3)cc21 (stereo not given)

>  <inhibition [%]>
2.77

$$$$
>  <compound>
COc1ccc(NS(=O)(=O)c2cc(C(=O)Nc3ccccc3C(=O)O)ccc2C)cc1

>  <inhibition [%]>
74.6

$$$$
>  <compound>
CC1(OC(=O)C2CCCC2)C(=O)C=C2C=C(c3ccc(C#N)cc3)OC=C2C1=O (stereo not given)

>  <inhibition [%]>
50.7

$$$$
